Reference for the values: patent US20210246166A1

assayed.target: T1, recombinant human MASP1 active protease (amino acids 297-699, C-terminal His Tag) (human, UniProt P48740 297-699)
T1 sequence: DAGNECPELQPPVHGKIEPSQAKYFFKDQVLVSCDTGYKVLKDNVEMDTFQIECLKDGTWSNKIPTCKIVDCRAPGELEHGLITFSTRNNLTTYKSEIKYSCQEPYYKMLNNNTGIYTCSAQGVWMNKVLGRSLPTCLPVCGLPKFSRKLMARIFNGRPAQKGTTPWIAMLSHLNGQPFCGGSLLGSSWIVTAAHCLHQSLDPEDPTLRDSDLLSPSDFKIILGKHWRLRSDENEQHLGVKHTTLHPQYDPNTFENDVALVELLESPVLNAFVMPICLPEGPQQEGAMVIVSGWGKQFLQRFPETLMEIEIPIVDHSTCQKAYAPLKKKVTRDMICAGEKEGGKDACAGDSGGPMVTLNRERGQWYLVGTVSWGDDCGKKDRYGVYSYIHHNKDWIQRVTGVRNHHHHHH
experiment.summary: cell-based or functional assay
Bridge positions count the residues as written; N and C are the ends. Square brackets hold non-standard residues; d marks the D form. Ends that are not written are not given here. Oic = O=C(O)[C@@H]1C[C@@H]2CCCC[C@@H]2N1; tBuAla = CC(C)(C)C[C@H](N)C(=O)O; Pen = CC(C)(S)[C@H](N)C(=O)O; Sar = CNCC(=O)O
value.type: human MASP1 IC50

Give human MASP1 IC50 for each of the items listed below.
1. PPICSRS[tBuAla]PPI[Pen]I-NH2 (disulfide 4-12; N-terminus assumed; SMILES CC[C@H](C)[C@H](NC(=O)[C@H]1NC(=O)[C@H]([C@@H](C)CC)NC(=O)[C@@H]2CCCN2C(=O)[C@@H]2CCCN2C(=O)[C@H](CC(C)(C)C)NC(=O)[C@H](CO)NC(=O)[C@H](CCCNC(=N)N)NC(=O)[C@H](CO)NC(=O)[C@@H](NC(=O)[C@@H](NC(=O)[C@@H]2CCCN2C(=O)[C@@H]2CCCN2)[C@@H](C)CC)CSSC1(C)C)C(N)=O) [Example 371: PPIC+SRS-((tBu)A)-PPI-(Pen)+I-NH2]
2. [Sar]ICSRSLPPICI[Oic]D-OH (disulfide 3-11; N-terminus assumed; SMILES CC[C@H](C)[C@H](NC(=O)CNC)C(=O)N[C@H]1CSSC[C@@H](C(=O)N[C@H](C(=O)N2[C@H](C(=O)N[C@@H](CC(=O)O)C(=O)O)C[C@@H]3CCCC[C@@H]32)[C@@H](C)CC)NC(=O)[C@H]([C@@H](C)CC)NC(=O)[C@@H]2CCCN2C(=O)[C@@H]2CCCN2C(=O)[C@H](CC(C)C)NC(=O)[C@H](CO)NC(=O)[C@H](CCCNC(=N)N)NC(=O)[C@H](CO)NC1=O) [Example 367: ((N-Me)G)-IC+SRSLPPIC+I-(Oic)-D-OH]

Solution:
["36 nM", "35 nM"]
